Data provenance: PubChem BioAssay (NCATS)

- Protocol Notes: qHTS of pediatric cancer cell lines to identify multiple opportunities for drug repurposing: Primary screen for Rh41 cells (AID 1347108);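 note: luminescence drop marks cytotoxic hits; nearly all actives have a fitted effect of over 70% in size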
- Condition Notes: Rh41 rhabdomyosarcoma viability, CellTiter-Glo luminescence, 48 h; series mostly up to 46 µM
Records with an inconclusive call do not appear. Calls of active or inactive are those of the source. Calls come from the whole dose curve; as a rule, active = well fitted cell-killing curve with a large enough effect; inconclusive = small, poorly fitted or top-dose-only effect; inactive = no such curve, though single readings can be large or run the other way.
Reported Metric: outcome

compound=O=C(/C=C/c1ccccc1)NCCO observed_value=inactive
compound=CC1(C)S[C@@H]2[C@H](NC(=O)[C@H](N)c3ccccc3)C(=O)N2[C@H]1C(=O)O observed_value=inactive
compound=O=C(O)c1cc(O)c(O)c(O)c1 observed_value=inactive
compound=COc1cc2c3cc1Oc1cc(ccc1O)C[C@@H]1c4c(cc(OC)c(O)c4Oc4ccc(cc4)C[C@@H]3N(C)CC2)CC[N+]1(C)C observed_value=inactive
compound=S=c1[nH]c2ccccc2s1 observed_value=inactive

Prompt: Entry `CCOc1ccc2nc(S(N)(=O)=O)sc2c1` has what outcome?
Completion: inactive

Prompt: Entry CCC1C(=O)OCC1Cc1cncn1C (configuration not stated) has what outcome?
Completion: inactive

Prompt: Entry `Cc1c(Nc2ncccc2C(=O)O)cccc1C(F)(F)F` has what outcome?
Completion: inactive

Prompt: Entry `N=C(N)N` has what outcome?
Completion: inactive

Prompt: Entry `c1ccc(CCNc2nc(-c3ccccc3)cs2)cc1` has what outcome?
Completion: inactive

Prompt: Entry COC(=O)C1=C(C)NC(C)=C(C(=O)OCC(C)=O)C1c1ccccc1[N+](=O)[O-] (configuration not stated) has what outcome?
Completion: inactive

Prompt: Entry `CCCCCCCCCCCCCCCC(=O)OC(C)C` has what outcome?
Completion: inactive

---

- Measurement Target: DNA polymerase III PolC-type (Bacillus subtilis (strain 168))
- Protocol Notes: qHTS Validation Assay for the Inhibitors of DNA Replication in Gram-Positive Bacteria (AID 485295);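 note: reconstituted holoenzyme with PolC plus beta clamp SSB and primase; PicoGreen fluorescence of double-stranded DNA made on primed circular M13 template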
- Condition Notes: Gram-positive bacterial DNA replication assay; series mostly up to 57.1 µM
Calls of active or inactive are those of the source. Calls come from the whole dose curve; as a rule, active = well fitted inhibition curve with a large enough effect; inconclusive = small, poorly fitted or top-dose-only effect; inactive = flat fitted curve, though single readings scatter.
Reported Metric: outcome

Below: 8 molecules and their reported outcome.
molecule=Ic1ccc(N2CCN(Cc3c[nH]c4ncccc34)CC2)cc1 reported_metric=outcome observed_value=inactive
molecule=CN(C)c1nc2c(Br)c(Br)c(Br)c(Br)c2[nH]1 reported_metric=outcome observed_value=inactive
molecule="O=C1O/C(=C/Br)CCC1c1cccc2ccccc12 (stereo unspecified)" reported_metric=outcome observed_value=inactive
molecule=O=C(c1cc(O)c(O)c([N+](=O)[O-])c1)c1ccccc1F reported_metric=outcome observed_value=inactive
molecule="COc1cc(C(O)CO)ccc1OS(=O)(=O)O (stereo unspecified)" reported_metric=outcome observed_value=inactive
molecule="O=C(O)CC1CC(c2ccccc2)=NO1 (stereo unspecified)" reported_metric=outcome observed_value=inactive
molecule=CCCCN1CCC(n2c(=O)[nH]c3ccccc32)CC1 reported_metric=outcome observed_value=inactive
molecule=NS(=O)(=O)C#Cc1ccccc1 reported_metric=outcome observed_value=inactive

Prompt: I'm curious: which outcome was measured for O=C(O)CNC(=O)C(CS)Cc1ccccc1 (stereo unspecified) tested on DNA polymerase III PolC-type (Bacillus subtilis (strain 168))?
Completion: inactive

Prompt: I'm curious: which outcome was measured for `O=C(O)c1cc(=O)c2c(Cl)cc(Cl)cc2[nH]1` tested on DNA polymerase III PolC-type (Bacillus subtilis (strain 168))?
Completion: inactive

Prompt: I'm curious: which outcome was measured for CCCCCCCCCCCCCCCCCCNC(=O)OCC(COP(=O)([O-])OCC[n+]1ccsc1)OC (stereo unspecified) tested on DNA polymerase III PolC-type (Bacillus subtilis (strain 168))?
Completion: inactive

Prompt: I'm curious: which outcome was measured for `CNC(=O)[C@H]1O[C@@H](n2cnc3c(NCc4cccc(I)c4)ncnc32)[C@H](O)[C@@H]1O` tested on DNA polymerase III PolC-type (Bacillus subtilis (strain 168))?
Completion: inactive

Prompt: I'm curious: which outcome was measured for C#C[C@]1(O)CC[C@H]2[C@@H]3CCC4=Cc5oncc5CC4(C)[C@H]3CCC21C (stereo partly specified) tested on DNA polymerase III PolC-type (Bacillus subtilis (strain 168))?
Completion: inactive

Prompt: I'm curious: which outcome was measured for `Nc1nc(Cl)nc2c1ncn2[C@@H]1O[C@H](CO)[C@@H](O)[C@H]1O` tested on DNA polymerase III PolC-type (Bacillus subtilis (strain 168))?
Completion: inactive

Prompt: I'm curious: which outcome was measured for `NC(=S)NCCC[C@H](N)C(=O)O` tested on DNA polymerase III PolC-type (Bacillus subtilis (strain 168))?
Completion: inactive

Prompt: I'm curious: which outcome was measured for `OC[C@H]1O[C@@H](n2cnc3c(NC4CCCCC4)ncnc32)[C@H](O)[C@@H]1O` tested on DNA polymerase III PolC-type (Bacillus subtilis (strain 168))?
Completion: inactive

---

- Measurement Target: D(1A) dopamine receptor (Homo sapiens)
- Protocol Notes: HTS Assay for Allosteric Agonists of the Human D1 Dopamine Receptor: Primary Screen for Agonists (AID 488981)
- Condition Notes: Inducible HEK293 T-REx D1 cells, calcium-flux fluorescence, 180 s kinetic; series mostly up to 41.8 µM
Results filed as inconclusive are left out. Activity calls are given as the source filed them. The call rests on the fitted dose curve; in most records, active means well fitted activation curve with a large enough effect; inconclusive means small, poorly fitted or top-dose-only effect; inactive means flat fitted curve, though single readings scatter.
Response enum: yes = active, no = inactive

compound=Cn1cc(C2=C(c3ccc(Cl)cc3Cl)C(=O)NC2=O)c2ccccc21 measurement_target="D(1A) dopamine receptor (Homo sapiens)" cat=yes
compound="O=C(O)CC1CCCc2ccccc2C1O (stereo not given)" measurement_target="D(1A) dopamine receptor (Homo sapiens)" cat=no
compound=Nc1nc(SCc2ccc([N+](=O)[O-])cc2)c2ncn([C@@H]3O[C@H](CO)[C@@H](O)[C@H]3O)c2n1 measurement_target="D(1A) dopamine receptor (Homo sapiens)" cat=no

Prompt: // param item: `CCCCCCCCc1ccc(-c2ccc(C(=O)O)cc2)cc1` ; yields the recorded call
Completion: no

Prompt: // param item: COc1cc2nc(N3CCN(C(=O)OCc4ccccc4)C(C(=O)NC(C)(C)C)C3)nc(N)c2cc1OC (stereo not given) ; yields the recorded call
Completion: no

---

- Protocol Notes: Validation screen for small molecules that induce genotoxicity in human embryonic kidney (HEK293T) cells expressing luciferase-tagged ELG1 (AID 493106)
- Condition Notes: luminescence; series mostly up to 46.1 µM
Inconclusive results are not listed. Active and inactive are the calls of the source. Calls come from the whole dose curve; as a rule, active = well fitted activation curve with a large enough effect; inconclusive = small, poorly fitted or top-dose-only effect; inactive = no such curve, though single readings can be large or run the other way.
Response enum: Yes (active), No (inactive)

These solved cases illustrate the format of a correct answer.
compound=O=C(Nc1cccc(C(=O)Nc2ccc(S(=O)(=O)O)c3cc(S(=O)(=O)O)cc(S(=O)(=O)O)c23)c1)Nc1cccc(C(=O)Nc2ccc(S(=O)(=O)O)c3cc(S(=O)(=O)O)cc(S(=O)(=O)O)c23)c1 cat=No
compound="CC1CN(S(=O)(=O)c2cccc3cnccc23)CCN1 (stereo unspecified)" cat=No
compound=COc1ccc(/C=C/C(=O)Nc2ccccc2C(=O)O)cc1OC cat=Yes
compound="CN1C2CC(OC(=O)[C@H](CO)c3ccccc3)CC1C1OC12 (stereo partly specified)" cat=No
compound="OCC1O[C@H](O)C(Cl)C(O)C1O (stereo partly specified)" cat=No

Prompt: // param item: Oc1ccc(C2CNCc3sccc32)cc1O (stereo unspecified) ; yields the recorded call
Completion: No

Prompt: // param item: `CN(C)C(N)=NCCC[C@H](N)C(=O)O` ; yields the recorded call
Completion: No

Prompt: // param item: `CN(C)c1ccc(/C=C2\C(=O)Nc3ccccc32)cc1` ; yields the recorded call
Completion: Yes

Prompt: // param item: `O=C(O)c1cc([N+](=O)[O-])ccc1NCCCc1ccccc1` ; yields the recorded call
Completion: No

Prompt: // param item: CCCCCCCCCCCCCCCC(=O)OC(CC(=O)O)C[N+](C)(C)C (stereo unspecified) ; yields the recorded call
Completion: No

Prompt: // param item: C=CC(N)CCC(=O)O (stereo unspecified) ; yields the recorded call
Completion: No

---

- Protocol Notes: Cell Viability - LYMP2-024 (AID 988);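 note: cells exposed to compound for 24 hr at 37 °C; nearly all actives have a fitted effect of over 60% in size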
- Condition Notes: LYMP2-024 lymphoblastoid cell viability; series mostly up to 92.2 µM
Inconclusive results are not listed. Calls of active or inactive are those of the source. Calls follow the shape of the dose curve; as a rule, active = well fitted cell-killing curve with a large enough effect; inconclusive = small, poorly fitted or top-dose-only effect; inactive = flat fitted curve, though single readings scatter.
Response enum: active, inactive

These solved cases illustrate the format of a correct answer.
compound=c1cnc2c(c1)ccc1cccnc12 cat=active
compound=O=C1CN(/N=C/c2ccc([N+](=O)[O-])o2)C(=O)N1 cat=inactive
compound=COc1cc(CNC(=O)CCCC/C=C/C(C)C)ccc1O cat=inactive
compound=NCCO cat=inactive
compound=CN(C)c1ccc(N=NS(=O)(=O)O)cc1 cat=inactive
compound="CC(C)NCC(O)COc1cccc2ccccc12 (configuration not stated)" cat=inactive

Prompt: // param item: `CN1CCC[C@H]1c1cccnc1` ; yields the recorded call
Completion: inactive

Prompt: // param item: `O=C(O)/C=C\C(=O)O` ; yields the recorded call
Completion: inactive

Prompt: // param item: `Nc1ccc(O)c(C(=O)O)c1` ; yields the recorded call
Completion: inactive

Prompt: // param item: `c1ccc2sc(SSc3nc4ccccc4s3)nc2c1` ; yields the recorded call
Completion: inactive
